Molecular target: soluble epoxide hydrolase (sEH) (Homo sapiens, UniProt P34913)
Sequence (P34913 whole entry): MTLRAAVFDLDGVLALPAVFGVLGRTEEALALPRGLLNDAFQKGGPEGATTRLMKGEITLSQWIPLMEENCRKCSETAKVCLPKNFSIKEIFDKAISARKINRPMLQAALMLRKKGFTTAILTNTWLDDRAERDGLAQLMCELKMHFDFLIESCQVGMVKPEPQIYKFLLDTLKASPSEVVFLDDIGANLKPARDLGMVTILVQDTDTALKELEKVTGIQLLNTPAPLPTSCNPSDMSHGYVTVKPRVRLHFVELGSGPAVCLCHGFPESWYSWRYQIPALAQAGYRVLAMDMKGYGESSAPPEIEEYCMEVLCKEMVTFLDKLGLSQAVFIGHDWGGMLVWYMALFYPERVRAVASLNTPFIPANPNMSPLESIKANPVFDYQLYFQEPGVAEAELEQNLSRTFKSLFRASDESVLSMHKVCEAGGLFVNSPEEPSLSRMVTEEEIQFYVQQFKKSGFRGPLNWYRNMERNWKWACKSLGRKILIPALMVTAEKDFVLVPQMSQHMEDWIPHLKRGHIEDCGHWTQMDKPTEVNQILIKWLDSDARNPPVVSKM
Test: fluorescent PHOME hydrolysis assay with recombinant sEH; Lineweaver–Burk and Dixon plots
QUANTITY_KIND: pKi
Numbers only, as −log10 of the molar value.

Note to self: pKi recorded for CC1(C)Oc2ccc3ccc(=O)oc3c2[C@H](O)[C@@H]1O [compound 1, (−)cis-Khellactone] was 5.46
